Taken from ChEMBL document CHEMBL1152787.

Overview of recorded Activity for various compounds
- experimental_target: ATP-dependent translocase ABCB1 (Homo sapiens, UniProt P08183)
- Sequence (P08183 whole entry): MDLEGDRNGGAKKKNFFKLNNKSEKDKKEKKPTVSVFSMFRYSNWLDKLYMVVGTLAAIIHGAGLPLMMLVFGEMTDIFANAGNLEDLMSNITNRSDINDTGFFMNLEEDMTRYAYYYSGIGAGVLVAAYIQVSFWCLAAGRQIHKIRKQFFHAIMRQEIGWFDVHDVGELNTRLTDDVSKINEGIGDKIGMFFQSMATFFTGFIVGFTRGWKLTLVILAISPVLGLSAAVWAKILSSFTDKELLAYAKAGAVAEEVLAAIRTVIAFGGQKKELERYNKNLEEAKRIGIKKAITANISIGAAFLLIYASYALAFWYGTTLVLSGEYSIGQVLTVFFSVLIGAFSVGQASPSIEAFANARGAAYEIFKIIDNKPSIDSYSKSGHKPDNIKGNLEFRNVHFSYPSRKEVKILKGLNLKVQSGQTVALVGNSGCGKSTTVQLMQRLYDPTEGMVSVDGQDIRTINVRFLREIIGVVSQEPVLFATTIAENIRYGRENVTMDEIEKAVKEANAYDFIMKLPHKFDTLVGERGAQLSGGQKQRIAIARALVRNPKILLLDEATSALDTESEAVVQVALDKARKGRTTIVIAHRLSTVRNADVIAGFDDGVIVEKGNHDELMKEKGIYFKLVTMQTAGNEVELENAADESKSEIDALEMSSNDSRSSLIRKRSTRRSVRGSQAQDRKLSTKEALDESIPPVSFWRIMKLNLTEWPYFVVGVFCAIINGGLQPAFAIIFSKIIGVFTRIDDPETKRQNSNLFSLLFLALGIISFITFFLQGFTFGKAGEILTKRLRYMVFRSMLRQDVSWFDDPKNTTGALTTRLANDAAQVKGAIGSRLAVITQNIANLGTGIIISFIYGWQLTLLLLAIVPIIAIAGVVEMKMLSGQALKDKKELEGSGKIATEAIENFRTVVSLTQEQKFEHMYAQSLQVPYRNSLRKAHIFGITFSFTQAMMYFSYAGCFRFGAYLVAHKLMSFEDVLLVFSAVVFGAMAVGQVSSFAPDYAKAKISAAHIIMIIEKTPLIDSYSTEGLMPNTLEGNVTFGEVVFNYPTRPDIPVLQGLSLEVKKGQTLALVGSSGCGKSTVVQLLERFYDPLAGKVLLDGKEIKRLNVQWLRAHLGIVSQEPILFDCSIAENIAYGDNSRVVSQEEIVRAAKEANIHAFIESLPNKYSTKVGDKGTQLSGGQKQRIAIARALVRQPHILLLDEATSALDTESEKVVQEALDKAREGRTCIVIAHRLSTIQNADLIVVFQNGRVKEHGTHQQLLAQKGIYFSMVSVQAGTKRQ
- protocol_text: Inhibition of P-gp ATPase activity in […] DC-3F/ADX cells assessed as increase in basal activity measured by NADH level at 0.05 uM by spectrophotometric method
- Format: cell-based
- Parameters: scale not given: the % may be the effect or the level left
- condition_description: Chinese hamster

compound: CC(C)N(CC(O)Cn1c2ccccc2c(=O)c2ccccc21)C(C)C (stereo unspecified)
units_text: %
Activity: 18
//
compound: O=c1c2ccccc2n(CC(O)CN2CCOCC2)c2ccccc12 (stereo unspecified)
units_text: %
Activity: 24
//
compound: CCN(CC)CC(O)Cn1c2ccccc2c(=O)c2ccccc21 (stereo unspecified)
units_text: %
Activity: 29
//
compound: O=c1c2ccccc2n(CC(O)CN2CCCC2)c2ccccc12 (stereo unspecified)
units_text: %
Activity: 31
//
compound: O=c1c2ccccc2n(CC(O)CN2CCC(N3CCCCC3)CC2)c2ccccc12 (stereo unspecified)
units_text: %
Activity: 25
//
compound: O=c1c2ccccc2n(CC(O)CN2CCCCC2)c2ccccc12 (stereo unspecified)
units_text: %
Activity: 33

====

- protocol_text: Lipophilicity, log P of the compound
- Format: physicochemical
- condition_description: octanol/water

molecule: O=c1c2ccccc2n(CC(O)CN2CCOCC2)c2ccccc12 (stereo unspecified)
logP: 1.08
//
molecule: CC(C)N(CC(O)Cn1c2ccccc2c(=O)c2ccccc21)C(C)C (stereo unspecified)
logP: 2.58
//
molecule: O=c1c2ccccc2n(CC(O)CN2CCCCC2)c2ccccc12 (stereo unspecified)
logP: 2.14
//
molecule: O=c1c2ccccc2n(CC(O)CN2CCC(N3CCCCC3)CC2)c2ccccc12 (stereo unspecified)
logP: 2.56
//
molecule: O=c1c2ccccc2n(CC(O)CN2CCCC2)c2ccccc12 (stereo unspecified)
logP: 1.73
//
molecule: CCN(CC)CC(O)Cn1c2ccccc2c(=O)c2ccccc21 (stereo unspecified)
logP: 1.98

====

- experimental_target: ATP-dependent translocase ABCB1 (Homo sapiens)
- protocol_text: Inhibition of P-gp ATPase activity in […] DC-3F/ADX cells assessed as increase in basal activity measured by NADH level at 0.5 uM by spectrophotometric method
- Assay type: cell-based
- Set-up: scale not given: the % may be the effect or the level left
- condition_description: Chinese hamster
Entries whose Activity is below 30% take MET; entries at or above 30% take NOT MET.

molecule: O=c1c2ccccc2n(CC(O)CN2CCCCC2)c2ccccc12 (stereo not given)
experimental_target: ATP-dependent translocase ABCB1 (Homo sapiens)
answer_label: NOT MET
--
molecule: O=c1c2ccccc2n(CC(O)CN2CCOCC2)c2ccccc12 (stereo not given)
experimental_target: ATP-dependent translocase ABCB1 (Homo sapiens)
answer_label: MET
--
molecule: O=c1c2ccccc2n(CC(O)CN2CCCC2)c2ccccc12 (stereo not given)
experimental_target: ATP-dependent translocase ABCB1 (Homo sapiens)
answer_label: NOT MET
--
molecule: CCN(CC)CC(O)Cn1c2ccccc2c(=O)c2ccccc21 (stereo not given)
experimental_target: ATP-dependent translocase ABCB1 (Homo sapiens)
answer_label: NOT MET
--
molecule: CC(C)N(CC(O)Cn1c2ccccc2c(=O)c2ccccc21)C(C)C (stereo not given)
experimental_target: ATP-dependent translocase ABCB1 (Homo sapiens)
answer_label: MET
--
molecule: CCCNCC(O)COc1ccccc1C(=O)CCc1ccccc1 (stereo not given)
experimental_target: ATP-dependent translocase ABCB1 (Homo sapiens)
answer_label: NOT MET
--
molecule: CC[C@]1(O)C[C@@H]2CN(CCc3c([nH]c4ccccc34)[C@@](C(=O)OC)(c3cc4c(cc3OC)N(C)[C@H]3[C@@](O)(C(=O)OC)[C@H](OC(C)=O)[C@]5(CC)C=CCN6CC[C@]43[C@@H]65)C2)C1
experimental_target: ATP-dependent translocase ABCB1 (Homo sapiens)
answer_label: NOT MET
--
molecule: O=c1c2ccccc2n(CC(O)CN2CCC(N3CCCCC3)CC2)c2ccccc12 (stereo not given)
experimental_target: ATP-dependent translocase ABCB1 (Homo sapiens)
answer_label: NOT MET

====

- experimental_target: ATP-dependent translocase ABCB1 (Homo sapiens, UniProt P08183)
- protocol_text: Inhibition of P-gp ATPase activity in […] DC-3F/ADX cells assessed as increase in basal activity measured by NADH level at 5 uM by spectrophotometric method
- Type: cell-based
- Design: scale not given: the % may be the effect or the level left
- condition_description: Chinese hamster
Recorded Activity for the following molecules
assay_readout: Activity (%)

molecule: O=c1c2ccccc2n(CC(O)CN2CCC(N3CCCCC3)CC2)c2ccccc12 (stereo not given)
experimental_target: ATP-dependent translocase ABCB1 (Homo sapiens, UniProt P08183)
assay_readout: Activity
value: 31
//
molecule: O=c1c2ccccc2n(CC(O)CN2CCCCC2)c2ccccc12 (stereo not given)
experimental_target: ATP-dependent translocase ABCB1 (Homo sapiens, UniProt P08183)
assay_readout: Activity
value: 44
//
molecule: CC(=O)[C@H]1CC[C@H]2[C@@H]3CCC4=CC(=O)CC[C@]4(C)[C@H]3CC[C@]12C
experimental_target: ATP-dependent translocase ABCB1 (Homo sapiens, UniProt P08183)
assay_readout: Activity
value: 34
//
molecule: CCN(CC)CC(O)Cn1c2ccccc2c(=O)c2ccccc21 (stereo not given)
experimental_target: ATP-dependent translocase ABCB1 (Homo sapiens, UniProt P08183)
assay_readout: Activity
value: 36
//
molecule: CCCNCC(O)COc1ccccc1C(=O)CCc1ccccc1 (stereo not given)
experimental_target: ATP-dependent translocase ABCB1 (Homo sapiens, UniProt P08183)
assay_readout: Activity
value: 40
//
molecule: CC(C)N(CC(O)Cn1c2ccccc2c(=O)c2ccccc21)C(C)C (stereo not given)
experimental_target: ATP-dependent translocase ABCB1 (Homo sapiens, UniProt P08183)
assay_readout: Activity
value: 28
//
molecule: O=c1c2ccccc2n(CC(O)CN2CCCC2)c2ccccc12 (stereo not given)
experimental_target: ATP-dependent translocase ABCB1 (Homo sapiens, UniProt P08183)
assay_readout: Activity
value: 38
//
molecule: COc1ccc(CCN(C)CCCC(C#N)(c2ccc(OC)c(OC)c2)C(C)C)cc1OC (stereo not given)
experimental_target: ATP-dependent translocase ABCB1 (Homo sapiens, UniProt P08183)
assay_readout: Activity
value: 33
//
molecule: CC[C@]1(O)C[C@@H]2CN(CCc3c([nH]c4ccccc34)[C@@](C(=O)OC)(c3cc4c(cc3OC)N(C)[C@H]3[C@@](O)(C(=O)OC)[C@H](OC(C)=O)[C@]5(CC)C=CCN6CC[C@]43[C@@H]65)C2)C1
experimental_target: ATP-dependent translocase ABCB1 (Homo sapiens, UniProt P08183)
assay_readout: Activity
value: 35
//
molecule: O=c1c2ccccc2n(CC(O)CN2CCOCC2)c2ccccc12 (stereo not given)
experimental_target: ATP-dependent translocase ABCB1 (Homo sapiens, UniProt P08183)
assay_readout: Activity
value: 30
